# key: entry, value: IC50
Target: human skin chymase (Homo sapiens)
Construct: human skin chymase (Cortex Biochem); purchased Cortex Biochem; host or cells: human skin (from the enzyme's name)
Sequence (P23946 22-247): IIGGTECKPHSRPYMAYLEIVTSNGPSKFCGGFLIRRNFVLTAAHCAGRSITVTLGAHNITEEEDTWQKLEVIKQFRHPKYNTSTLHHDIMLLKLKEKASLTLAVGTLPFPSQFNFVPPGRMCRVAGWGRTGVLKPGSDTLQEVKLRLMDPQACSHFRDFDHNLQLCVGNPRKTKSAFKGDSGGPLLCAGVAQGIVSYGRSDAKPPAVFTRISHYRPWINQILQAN
Assay: Enzyme-catalyzed hydrolysis assay, chymase (chromogenic substrate Suc-Ala-Ala-Pro-Phe-pNa)
Type: biochemical
Conditions: 10 nM enzyme, 0.7 mM substrate, pH 8.0, 37° C., 30 minutes
measurement.type: IC50

INSERT INTO results (compound, measurement_type, observed_result) VALUES
  ('O=C(NC1CCN(C(=O)c2ccc3ccccc3c2)CC1)c1cc2ccccc2cc1C(=O)C(c1cccc2ccccc12)P(=O)(O)O (stereo not shown)', 'IC50', '0.0158 µM'),
  ('CN(C(=O)c1cc2ccccc2cc1C(=O)C(c1cccc2ccccc12)P(=O)(O)O)C1CCC(c2ccccc2)CC1 (stereo not shown)', 'IC50', '0.0053 µM'),
  ('CN(CC12CC3CC(CC(C3)C1)C2)C(=O)c1cc2ccccc2cc1C(=O)C(c1cccc2ccccc12)P(=O)(O)O (stereo not shown)', 'IC50', '0.036 µM'),
  ('COc1cccc(C2CCN(C(=O)c3cc4ccccc4cc3C(=O)C(c3cccc4ccccc34)P(=O)(O)O)CC2)c1 (stereo not shown)', 'IC50', '0.01 µM'),
  ('CN(C(=O)c1cc2ccccc2cc1C(=O)C(c1cccc2ccccc12)P(=O)(O)O)C1CCN(C(=O)c2ccccc2)CC1 (stereo not shown)', 'IC50', '0.017 µM'),
  ('CN(C(=O)c1cc2ccccc2cc1C(=O)C(c1cccc2ccccc12)P(=O)(O)O)C1CCN(C(=O)/C=C/c2ccc(C(F)(F)F)cc2)CC1 (stereo not shown)', 'IC50', '0.014 µM'),
  ('CN(C(=O)c1cc2ccccc2cc1C(=O)C(c1cccc2ccccc12)P(=O)(O)O)C1CC=C(c2ccccc2)CC1 (stereo not shown)', 'IC50', '0.0082 µM'),
  ('CN(C(=O)c1cc2ccccc2cc1C(=O)C(c1cccc2ccccc12)P(C)(=O)O)C1CCN(C(=O)c2ccc3ccccc3c2)CC1 (stereo not shown)', 'IC50', '0.31 µM'),
  ('O=C(c1cc2ccccc2cc1C(=O)N1CCC(c2ccccc2)C1)C(c1cccc2ccccc12)P(=O)(O)O (stereo not shown)', 'IC50', '0.022 µM'),
  ('CN(C(=O)c1cc2ccccc2cc1C(=O)C(c1cccc2ccccc12)P(=O)(O)O)C1CCN(C(=O)c2ccc3cc(Br)ccc3c2)CC1 (stereo not shown)', 'IC50', '0.0039 µM'),
  ('CN(C(=O)c1cc2ccccc2cc1C(=O)C(c1csc2ccc(Cl)cc12)P(=O)(O)O)C1CCN(C(=O)c2ccc3ccccc3c2)CC1 (stereo not shown)', 'IC50', '0.001 µM'),
  ('O=C(c1cc2ccccc2cc1C(=O)N1CCC(CCc2ccccc2)C1)C(c1cccc2ccccc12)P(=O)(O)O (stereo not shown)', 'IC50', '0.0097 µM'),
  ('O=C(c1cc2ccccc2cc1C(=O)N1CCC(c2nc3ccccc3s2)CC1)C(c1cccc2ccccc12)P(=O)(O)O (stereo not shown)', 'IC50', '0.0085 µM');

---

Molecular target: human neutrophil cathepsin G (Homo sapiens, UniProt P08311)
Construct: human neutrophil cathepsin G (Athens Research and Technology); purchased Athens Research and Technology; host or cells: human neutrophils (from the enzyme's name)
Sequence (P08311 21-243 limits assumed): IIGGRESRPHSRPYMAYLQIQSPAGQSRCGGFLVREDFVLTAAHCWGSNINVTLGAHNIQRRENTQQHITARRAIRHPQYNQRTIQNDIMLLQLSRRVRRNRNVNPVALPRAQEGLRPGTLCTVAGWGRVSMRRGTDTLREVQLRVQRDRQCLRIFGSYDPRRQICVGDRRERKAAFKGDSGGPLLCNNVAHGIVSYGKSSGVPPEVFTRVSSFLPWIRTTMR
Test: Enzyme-catalyzed hydrolysis assay, cathepsin G (chromogenic substrate Suc-Ala-Ala-Pro-Phe-pNa)
Format: biochemical
Settings: 70 nM enzyme, 5 mM substrate, pH 7.4, 37° C., 30 minutes; read-out: IC50 (μM) CatG
measurement.type: IC50 (µM)

INSERT INTO assay_data (molecule, relation_sign, observed_result) VALUES
  ('O=C(c1cc2ccccc2cc1C(=O)N1CCN(S(=O)(=O)c2ccc3ccccc3c2)CC1)C(c1cccc2ccccc12)P(=O)(O)O (stereo not shown) [Compound 35]', '=', 0.56),
  ('O=C(c1cc2ccccc2cc1C(=O)N1CCC2(CC1)C(=O)NCN2c1ccccc1)C(c1cccc2ccccc12)P(=O)(O)O (stereo not shown) [Compound 8]', '=', 0.13),
  ('CN(C(=O)c1cc2ccccc2cc1C(=O)C(c1cccc2ccccc12)P(C)(=O)O)C1CCN(C(=O)c2ccc3ccccc3c2)CC1 (stereo not shown) [Compound 32]', '=', 0.86),
  ('CN(C(=O)c1cc2ccccc2cc1C(=O)C(c1cccc2ccccc12)P(=O)(O)O)C1CCN(C(=O)c2ccc3cc(Br)ccc3c2)CC1 (stereo not shown) [Compound 4]', '=', 0.09),
  ('CN(CC12CC3CC(CC(C3)C1)C2)C(=O)c1cc2ccccc2cc1C(=O)C(c1cccc2ccccc12)P(=O)(O)O (stereo not shown) [Compound 28]', '=', 0.4),
  ('CN(C(=O)c1cc2ccccc2cc1C(=O)C(c1cccc2ccccc12)P(=O)(O)O)C1CCC(c2ccccc2)CC1 (stereo not shown) [Compound 1]', '=', 0.083),
  ('O=C(c1cc2ccccc2cc1C(=O)N1CCC(CCc2ccccc2)C1)C(c1cccc2ccccc12)P(=O)(O)O (stereo not shown) [Compound 25]', '=', 0.156),
  ('O=C(c1cc2ccccc2cc1C(=O)N1CCC(c2ccccc2)C1)C(c1cccc2ccccc12)P(=O)(O)O (stereo not shown) [Compound 19]', '=', 0.238),
  ('O=C(c1cc2ccccc2cc1C(=O)N1CCN(C(=O)Nc2ccc3ccccc3c2)CC1)C(c1cccc2ccccc12)P(=O)(O)O (stereo not shown) [Compound 43]', '=', 0.95),
  ('COP(=O)(O)C(C(=O)c1cc2ccccc2cc1C(=O)N(C)C1CCN(C(=O)c2ccc3ccccc3c2)CC1)c1cccc2ccccc12 (stereo not shown) [Compound 23]', '=', 0.67),
  ('CN(C)c1ccc(C=CC(=O)N2CCC(N(C)C(=O)c3cc4ccccc4cc3C(=O)C(c3cccc4ccccc34)P(=O)(O)O)CC2)cc1 (stereo not shown) [Compound 13]', '=', 0.064),
  ('COc1ccc(N2CCN(C(=O)c3cc4ccccc4cc3C(=O)C(c3cccc4ccccc34)P(=O)(O)O)CC2)cc1 (stereo not shown) [Compound 40]', '=', 0.17),
  ('CN(C(=O)c1ccccc1C(=O)C(c1cccc2ccccc12)P(=O)(O)O)C1CCN(C(=O)c2ccc3ccccc3c2)CC1 (stereo not shown) [Compound 31]', '>', 100);

---

# IC50 per entry
Biological target: human neutrophil cathepsin G (Homo sapiens)
Construct: human neutrophil cathepsin G (Athens Research and Technology); purchased Athens Research and Technology; host or cells: human neutrophils (from the enzyme's name)
Assay: Enzyme-catalyzed hydrolysis assay, cathepsin G (chromogenic substrate Suc-Ala-Ala-Pro-Phe-pNa)
Type: biochemical
Settings: 70 nM enzyme, 5 mM substrate, pH 7.4, 37° C., 30 minutes; read-out: IC50 (μM) CatG
measurement.type: IC50 (µM)

INSERT INTO results (compound, tested_target, measure_unit, observed_result) VALUES
  ('O=C(NC1CCN(C(=O)c2cc3ccccc3cc2C(=O)C(c2cccc3ccccc23)P(=O)(O)O)CC1)c1ccc2ccccc2c1 (stereo not shown)', 'human neutrophil cathepsin G (Homo sapiens)', 'µM', 0.09),
  ('O=C(c1cc2ccccc2cc1C(=O)N1CCN(S(=O)(=O)c2c(Cl)nc3sccn23)CC1)C(c1cccc2ccccc12)P(=O)(O)O (stereo not shown)', 'human neutrophil cathepsin G (Homo sapiens)', 'µM', 0.14),
  ('Cc1ccc(/C=C/C(=O)N2CCC(N(C)C(=O)c3cc4ccccc4cc3C(=O)C(c3cccc4ccccc34)P(=O)(O)O)CC2)cc1 (stereo not shown)', 'human neutrophil cathepsin G (Homo sapiens)', 'µM', 0.053),
  ('CN(C(=O)c1cc2ccccc2cc1C(=O)C(c1cccc2ccccc12)P(=O)(O)O)C1CCN(C(=O)CCc2ccc(C(F)(F)F)cc2)CC1 (stereo not shown)', 'human neutrophil cathepsin G (Homo sapiens)', 'µM', 0.028),
  ('CN(C(=O)c1cc2ccccc2cc1C(=O)C(c1cccc2ccccc12)P(=O)(O)O)C1CCN(C(=O)/C=C/c2ccccc2)CC1 (stereo not shown)', 'human neutrophil cathepsin G (Homo sapiens)', 'µM', 0.067),
  ('O=C(c1cc2ccccc2cc1C(=O)N1CCN(C(=O)c2ccc3ccccc3c2)CC1)C(c1cccc2ccccc12)P(=O)(O)O (stereo not shown)', 'human neutrophil cathepsin G (Homo sapiens)', 'µM', 0.78),
  ('CN(C(=O)c1cc2ccccc2cc1C(=O)C(c1cccc2ccccc12)P(=O)(O)O)C1CCN(C(=O)/C=C/c2ccc(C(F)(F)F)cc2)CC1 (stereo not shown)', 'human neutrophil cathepsin G (Homo sapiens)', 'µM', 0.053),
  ('CN(C(=O)c1cc2ccccc2cc1C(=O)C(c1csc2ccc(Cl)cc12)P(=O)(O)O)C1CCN(C(=O)c2ccc3ccccc3c2)CC1 (stereo not shown)', 'human neutrophil cathepsin G (Homo sapiens)', 'µM', 0.121),
  ('COc1ccc(C2CCN(C(=O)c3cc4ccccc4cc3C(=O)C(c3cccc4ccccc34)P(=O)(O)O)CC2)cc1 (stereo not shown)', 'human neutrophil cathepsin G (Homo sapiens)', 'µM', 0.179),
  ('O=C(c1cc2ccccc2cc1C(=O)N1CCC(c2nc3ccccc3s2)CC1)C(c1cccc2ccccc12)P(=O)(O)O (stereo not shown)', 'human neutrophil cathepsin G (Homo sapiens)', 'µM', 0.19),
  ('CN(C(=O)c1cc2ccccc2cc1C(=O)C(c1cccc2ccccc12)P(=O)(O)O)C1CC=C(c2ccccc2)CC1 (stereo not shown)', 'human neutrophil cathepsin G (Homo sapiens)', 'µM', 0.15),
  ('CN(C(=O)c1cc2ccccc2cc1C(=O)C(c1ccccc1)P(=O)(O)O)C1CCN(C(=O)c2ccc3ccccc3c2)CC1 (stereo not shown)', 'human neutrophil cathepsin G (Homo sapiens)', 'µM', 4.9),
  ('COc1cccc(C2CCN(C(=O)c3cc4ccccc4cc3C(=O)C(c3cccc4ccccc34)P(=O)(O)O)CC2)c1 (stereo not shown)', 'human neutrophil cathepsin G (Homo sapiens)', 'µM', 0.23);
